- target.of.assay: Bcl-2-like protein 10 (Homo sapiens) (UniProt Q9HD36)
- Sequence (Q9HD36 whole entry, looked up): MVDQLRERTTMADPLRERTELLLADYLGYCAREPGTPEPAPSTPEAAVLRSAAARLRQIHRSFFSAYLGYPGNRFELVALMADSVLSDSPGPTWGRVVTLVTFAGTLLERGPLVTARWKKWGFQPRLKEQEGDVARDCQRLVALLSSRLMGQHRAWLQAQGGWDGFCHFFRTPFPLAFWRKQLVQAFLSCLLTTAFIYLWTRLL
- test.description: TR3 peptide-Bcl-B binding displacers, biochemical primary FP assay, phenotype converters (AID 1240);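 also: 0% = Bcl-B with tracer peptide and DMSO and 100% = tracer peptide lacking Bcl-B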
- condition.parameters: GST-Bcl-B / FITC-TR3 peptide fluorescence polarization; stronger effect = higher value; compound at 3.75 mg/L
Out of some 50,000 compounds screened, about 800 (1.6%) showed an effect of 50% or more. The entries come from a sample that favours strong results as a whole.
Overview of recorded displacement for various compounds
Show the value, then the unit it is measured in.

Observe how each entry below is paired with its result.
- compound: "COc1ccc(C(=O)N2CCN(Cc3cccc4ccccc34)CC2)cc1OC"
  reported.endpoint: "displacement"
  assay.result: "-5.2%"
- compound: "Cc1ccccc1CNC(=O)CN(c1ccc(Oc2ccccc2)cc1)S(C)(=O)=O"
  reported.endpoint: "displacement"
  assay.result: "7.2%"
- compound: "C=CCc1cccc2cc(C(=O)Nc3ccc(CC)cc3)c(=O)oc12"
  reported.endpoint: "displacement"
  assay.result: "8.6%"
- compound: "O=C(Nc1ccc(S(=O)(=O)N2CCc3ccccc32)cc1)c1ccc(-c2ccccc2)cc1"
  reported.endpoint: "displacement"
  assay.result: "89.5%"
- compound: "CCOc1ccc(NC(=O)CC2S/C(=N\\N=C(/C)c3cccc(NC(C)=O)c3)NC2=O)cc1 (stereo not drawn)"
  reported.endpoint: "displacement"
  assay.result: "-11%"

Data request: For the compound COc1cc(C(=O)N2CCN(Cc3cccc(Oc4ccccc4)c3)CC2)cc(OC)c1OC , give its reported displacement.
Data returned: 132%

Data request: Return value of displacement for input COC(=O)c1sc(NC(=O)c2c(-c3c(Cl)cccc3Cl)noc2C)c(C#N)c1C , no commentary.
Data returned: 3.1%

Data request: // fetch displacement given entry C=CCc1cccc2cc(C(=O)Nc3ccc(OCC)cc3)c(=O)oc12
Data returned: 53.1%

Data request: // fetch displacement given entry C=CCn1c(C)nc2c(cnn2-c2ccccc2)c1=O
Data returned: -0.7%

Data request: Give the reported displacement for this compound. O=C(Nc1ccc(-c2nc3ccccc3s2)cc1)c1cc2ccccc2o1
Data returned: -6.9%

---

- target.of.assay: Bcl-2-like protein 10 (Homo sapiens)
- test.description: TR3 peptide-Bcl-B binding displacers, biochemical primary FP assay, phenotype converters (AID 1240);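 also: 0% = Bcl-B with tracer peptide and DMSO and 100% = tracer peptide lacking Bcl-B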
- condition.parameters: GST-Bcl-B / FITC-TR3 peptide fluorescence polarization; stronger effect = higher value; compound at 3.75 mg/L
In all, about 50,000 compounds went through this assay and about 800 (1.6%) showed an effect of 50% or more. For the sample, strong results were picked, then their nearest neighbours and some compounds at random.
Listed below: displacement values for each entry.
# output: bare number, implied unit %

These recorded examples may help you get a feel for the data.
- smiles.code: "CCOc1ccc(C(=O)Nc2cccc(C(C)=O)c2)cc1"
  assay.result: 9
- smiles.code: "O=C(Oc1cccc(-c2cnc3ccccc3n2)c1)c1cccc(S(=O)(=O)N2CCOCC2)c1"
  assay.result: 225
- smiles.code: "O=C(CSc1nc2sc3c(c2c(=O)[nH]1)CCCC3)NCc1ccccc1"
  assay.result: -18.5
- smiles.code: "O=C(Oc1ccc(Cl)cc1)c1cccc(S(=O)(=O)N2CCOCC2)c1"
  assay.result: -8.4

Data request: Could you please provide reported displacement for COc1ccccc1/C=C1\SC(=S)N(c2c(C)n(C)n(-c3ccccc3)c2=O)C1=O ? Thanks!
Data returned: 1.2

Data request: Please supply the value of reported displacement for the item CCOc1cc(/C=N/NC(=O)c2ccncc2)ccc1OC(=O)c1ccc([N+](=O)[O-])cc1
Data returned: 6.9

---

- target.of.assay: Bcl-2-like protein 10 (Homo sapiens)
- test.description: TR3 peptide-Bcl-B binding displacers, biochemical primary FP assay, phenotype converters (AID 1240);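 also: 0% = Bcl-B with tracer peptide and DMSO and 100% = tracer peptide lacking Bcl-B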
- condition.parameters: GST-Bcl-B / FITC-TR3 peptide fluorescence polarization; stronger effect = higher value; compound at 3.75 mg/L
Screen size: about 50,000 compounds; about 800 (1.6%) showed an effect of 50% or more. Many of the other results were omitted from the sample, so strong results are more common in it than they were.
displacement values for the compounds below.
Provide the reading as a plain figure in %.

Here is how some compounds turned out for displacement.
- compound: "COC(=O)C1=C(C)N(c2ccc(Br)cc2)/C(=C\\c2ccc(OCC(=O)Nc3ccccc3OC)cc2)C1=O"
  displacement [%]: 20.3
- compound: "CCOc1ccc(/C=C2\\C(=O)C(C(=O)OC)=C(C)N2c2ccc(F)cc2)cc1"
  displacement [%]: -6.6
- compound: "COc1ccc(-c2cc(C(=O)OC(C)C)c3cc(Br)ccc3n2)cc1"
  displacement [%]: -3.9
- compound: "COc1ccc(N2C(=O)Cn3c2nc2c3c(=O)n(C)c(=O)n2C)cc1"
  displacement [%]: 61.6

Data request: Please look at COc1ccc(C2CC(=O)C3=C(C2)Nc2ccccc2NC3c2cccs2)cc1OC (stereo unspecified) and tell me its recorded displacement on Bcl-2-like protein 10 (Homo sapiens).
Data returned: -4.5

Data request: Quote Bcl-2-like protein 10 (Homo sapiens) displacement for entry C=CCOc1c(Br)cc(/C=C2/N=C(c3ccccc3)OC2=O)cc1OC .
Data returned: -4.9

Data request: Provide displacement, system Bcl-2-like protein 10 (Homo sapiens), entry O=c1oc2c3c4c(cc2cc1CCO)CCCN4CCC3
Data returned: 75.8

---

- target.of.assay: Bcl-2-like protein 10 (Homo sapiens)
- test.description: TR3 peptide-Bcl-B binding displacers, biochemical primary FP assay, phenotype converters (AID 1240);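 also: 0% = Bcl-B with tracer peptide and DMSO and 100% = tracer peptide lacking Bcl-B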
- condition.parameters: GST-Bcl-B / FITC-TR3 peptide fluorescence polarization; stronger effect = higher value; compound at 3.75 mg/L
About 800 (1.6%) of roughly 50,000 compounds showed an effect of 50% or more. Only a selection was taken, and strong results are over-represented in it overall.
reported.endpoint: displacement (%)
All answers are understood in %, so give the number only.

- smiles.code: "O=C(Nc1ccc(-c2nc3ccccc3[nH]2)cc1)c1cccs1"
  units.symbol: "%"
  displacement: -7.9
- smiles.code: "COc1ccc(/C(O)=C/c2nc3ccccc3oc2=O)cc1"
  units.symbol: "%"
  displacement: -1.7
- smiles.code: "O=c1/c(=C\\c2ccc(OCc3ccc([N+](=O)[O-])cc3)cc2)sc2nc3ccccc3n12"
  units.symbol: "%"
  displacement: 4.5
- smiles.code: "Cc1ccc(Sc2ccc(/C=c3\\sc4nc5ccccc5n4c3=O)o2)cc1"
  units.symbol: "%"
  displacement: 86.8

Now for another entry.
Data request: Indicate the recorded displacement value for this molecule: O=c1/c(=C/c2ccc([N+](=O)[O-])cc2)sc2nc3ccccc3n12
Data returned: 86.7

---

- target.of.assay: Bcl-2-like protein 10 (Homo sapiens) (UniProt Q9HD36)
- test.description: TR3 peptide-Bcl-B binding displacers, biochemical primary FP assay, phenotype converters (AID 1240);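 also: 0% = Bcl-B with tracer peptide and DMSO and 100% = tracer peptide lacking Bcl-B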
- condition.parameters: GST-Bcl-B / FITC-TR3 peptide fluorescence polarization; stronger effect = higher value; compound at 3.75 mg/L
Screen size: about 50,000 compounds; about 800 (1.6%) showed an effect of 50% or more. The sample holds strong results, similar compounds and a random draw of the others, so the mix is not that of the screen.
reported.endpoint: displacement (%)
Express your answer in %, writing the number without its unit.

See these solved cases before continuing.
- molecule: "N#Cc1c(/N=C\\c2ccc(N3CCOCC3)c([N+](=O)[O-])c2)sc2c1CCCC2"
  assay.result: 81.3
- molecule: "COc1ccccc1NC(=O)C1=C(C)NC(=S)NC1c1ccccc1OC (centres undefined)"
  assay.result: 6
- molecule: "CCOc1ccccc1/C=C1/SC(NC(C)=O)=NC1=O"
  assay.result: 12.9
- molecule: "CC(=NCCc1ccccc1)c1c(C(F)(F)F)[nH]n(-c2nc3ccccc3s2)c1=O"
  assay.result: -8.3
- molecule: "CCOc1ccc(/C=C2/SC(NC(C)=O)=NC2=O)cc1OCC"
  assay.result: 54.6

Data request: Send back Bcl-2-like protein 10 (Homo sapiens) (UniProt Q9HD36) displacement of CCOc1cc(/C=N/n2cnnc2)ccc1OCCOc1ccc(Br)cc1 only.
Data returned: 19.3

---

Listing of entries alongside the reported displacement.
- target.of.assay: Bcl-2-like protein 10 (Homo sapiens)
- test.description: TR3 peptide-Bcl-B binding displacers, biochemical primary FP assay, phenotype converters (AID 1240);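 also: 0% = Bcl-B with tracer peptide and DMSO and 100% = tracer peptide lacking Bcl-B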
- condition.parameters: GST-Bcl-B / FITC-TR3 peptide fluorescence polarization; stronger effect = higher value; compound at 3.75 mg/L
The whole screen tested about 50,000 compounds, of which about 800 (1.6%) showed an effect of 50% or more. What follows is part of a selection rich in strong results, with near analogues and random picks from the rest.
Kindly answer with a numeric value in %, unit omitted.

Solved entries (count: 2):
- smiles.code: "O=C1/C(=C/c2cccc(Br)c2)SC(=S)N1Cc1ccco1"
  displacement, %: 3.6
- smiles.code: "O=C1/C(=C/c2ccc(Cl)c(Cl)c2)SC(=S)N1Cc1ccco1"
  displacement, %: 14.2

Attention now turns to another entry.
Data request: Determine from records and report displacement for O=C1/C(=C/c2ccc(O)cc2)SC(=S)N1Cc1ccco1
Data returned: -13.3
